Target: T1, 4H850-AA
T1 chain: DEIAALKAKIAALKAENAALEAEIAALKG
Experiment: two-hybrid library CCmax;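 also: natural log of median RNA to DNA barcode read ratio; higher means stronger binding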
Details: mean of both orientations
assay endpoint: interaction score

In the examples that follow, each entry is paired with its recorded interaction score.
INSERT INTO results (binder, observed_value) VALUES
  ('DEIAALKAEIAALEAKNAALKAEIAALKG [4H570-AA]', 1.66),
  ('DKIAALKAENAALEAEIAALKAEIAALKG [4H2698-AA]', -0.992),
  ('DENAALKAKIAALKAENAALEAKIAALEG [4H1877-AA]', -1.25);

a = DENAALEAKNAALKAEIAALEAKIAALKG [4H1478-AA]
b = DEIAALKAENAALKAKIAALKAEIAALEG [4H745-AA]
Ask: Which is greater in interaction score, the first item a or the second item b ? Field: selected label. Fill in the label of the entry you choose.
Reply: a

I = DENAALKAEIAALKAENAALKAEIAALKG [4H1626-AA]
II = DEIAALKAEIAALKAKNAALEAKIAALEG [4H629-AA]
Ask: Lower value for measured interaction score? Options: I , II Use the label to indicate which entry you chose.
Reply: II

Hello, the source for this data is paper PMC10397247, in case you need it.
